In this section we review reported IC50 values for a set of molecules.
Test system: Escherichia coli
protocol.description: Inhibition of Escherichia coli translation
Type: functional, organism-based
The figure you give is taken to be in µM; do not add the unit.

CC(=O)NC[C@H]1CN(c2ccc(-c3ccc(CNCc4ccncc4)cc3)c(F)c2)C(=O)O1	0.05
CC(=O)NC[C@H]1CN(c2ccc(-c3ccc(CNCc4ccco4)cc3)c(F)c2)C(=O)O1	0.04

Shifting focus to the molecule that follows.
For the molecule CC(=O)NC[C@H]1CN(c2ccc(N3CCOCC3)c(F)c2)C(=O)O1 , report IC50.
4.6

====

log10(MIC) reference
System: Haemophilus influenzae
protocol.description: Antimicrobial activity against Haemophilus influenzae 1100 by NCCLS method
Assay type: functional
For clarity, the numbers are log10 values of MIC expressed in µg/mL.

Sample records with log10(MIC):
CC(=O)NC[C@H]1CN(c2ccc(-c3ccc(Cn4ncnn4)cc3)c(F)c2)C(=O)O1	0.60
CC(=O)NC[C@H]1CN(c2ccc(N3CCOCC3)c(F)c2)C(=O)O1	1.20
CC(=O)NC[C@H]1CN(c2ccc(-c3ccc(CNCCCF)cc3)c(F)c2)C(=O)O1	0.30

Lab note: record log10(MIC) of CC(=O)NC[C@H]1CN(c2ccc(-c3ccc(CNCC#N)cc3)c(F)c2)C(=O)O1 tested on Haemophilus influenzae.
0.60

Look up and report measured log10(MIC) (Haemophilus influenzae) for the following molecule: CC(=O)NC[C@H]1CN(c2ccc(-c3ccc(CNCc4cnn[nH]4)cc3)c(F)c2)C(=O)O1
-0.60

Specify log10(MIC) for CC(=O)NC[C@H]1CN(c2ccc(-c3ccc(CNCc4cnoc4)cc3)c(F)c2)C(=O)O1 , system Haemophilus influenzae.
0.00

Check Haemophilus influenzae data and give log10(MIC) for CC(=O)NC[C@H]1CN(c2ccc(-c3ccc(Cn4ccnn4)cc3)c(F)c2)C(=O)O1 .
0.30

Fetch value of log10(MIC) on Haemophilus influenzae for CC(=O)NC[C@H]1CN(c2ccc(-c3ccc(Cn4cnnn4)cc3)c(F)c2)C(=O)O1 .
0.30

====

# MIC values compiled below
Test system: Streptococcus pyogenes
protocol.description: Antimicrobial activity against erm (B) expressing Streptococcus pyogenes Msr 610 by NCCLS method
Format: functional
Kindly provide the numeric value in µg/mL only, without the unit symbol.

For orientation, consider the following solved cases.
CC(=O)NC[C@H]1CN(c2ccc(N3CCOCC3)c(F)c2)C(=O)O1	1
CC(=O)NC[C@H]1CN(c2ccc(-c3ccc(CNCc4ccncc4)cc3)c(F)c2)C(=O)O1	0.5
CC(=O)NC[C@H]1CN(c2ccc(-c3ccc(CNCc4ccnc5ccccc45)cc3)c(F)c2)C(=O)O1	0.5

The record that follows has no MIC shown yet.
For the compound CC(=O)NC[C@H]1CN(c2ccc(-c3ccc(CNCc4ccco4)cc3)c(F)c2)C(=O)O1 , give its reported MIC.
0.25

====

Test system: Enterococcus faecalis
protocol.description: Antimicrobial activity against vanB+ expressing Enterococcus faecalis 1069 by NCCLS method
Assay type: functional
List of MIC values.

CC(=O)NC[C@H]1CN(c2ccc(-c3ccc(Cn4ncnn4)cc3)c(F)c2)C(=O)O1	≤ 0.25 µg/mL
CC(=O)NC[C@H]1CN(c2ccc(-c3ccc(Cn4ccnn4)cc3)c(F)c2)C(=O)O1	0.5 µg/mL
CC(=O)NC[C@H]1CN(c2ccc(-c3ccc(Cn4cnnn4)cc3)c(F)c2)C(=O)O1	0.5 µg/mL
CC(=O)NC[C@H]1CN(c2ccc(-c3ccc(CNCc4cnoc4)cc3)c(F)c2)C(=O)O1	0.5 µg/mL

Find the measured MIC of CC(=O)NC[C@H]1CN(c2ccc(-c3ccc(CNCc4cnn[nH]4)cc3)c(F)c2)C(=O)O1 and report it.
≤ 0.25 µg/mL

# return recorded MIC for entry CC(=O)NC[C@H]1CN(c2ccc(-c3ccc(CNCCCF)cc3)c(F)c2)C(=O)O1
0.5 µg/mL

Determine from records and report MIC for CC(=O)NC[C@H]1CN(c2ccc(-c3ccc(CNCC#N)cc3)c(F)c2)C(=O)O1
≤ 0.25 µg/mL
